tested on: 5-LO; experiment: inhibition of 5-LO (5-HETE production) in intact RBL-1 cells (whole cell); assay type: cell-based, Rat; conditions: Table A
pIC50: −log10 of the molar value.
QUANTITY_KIND: pIC50

Enquiry: Tell me the measured pIC50 of COc1ccc(-n2nc(CCC(=O)N(C)O)cc2-c2ccc(OCc3ccc4ccccc4n3)cc2)cc1 , please.
Return: 6.27

(a) OCCc1cc(-c2ccc(Cl)cc2)n(-c2ccc(OCc3ccc4ccccc4n3)cc2)n1
(b) CCOC(=O)Cc1cc(-c2ccc(Cl)cc2)n(-c2ccc(OCc3ccc4ccccc4n3)cc2)n1
Enquiry: // pick min by pIC50: a , b Choose, then provide that item's label.
Return: b
(b: 4.87, a: 5.89)

All figures here come from patent US5843958A.
